Hello, the source for this data is ChEMBL document CHEMBL1125325, in case you need it.

Give measured IC50 for each item. Keep answers brief.
Target: Vasopressin receptor (Rattus norvegicus, UniProt P48974+P30560+Q00788)
Test: Half-maximal inhibition of binding of [3H]- vasopressin to the vasopressin receptor 2 in rat kidney
Type: tissue-based

[Q] Consider the molecule O=[N+]([O-])c1ccccc1S(=O)(=O)N1CCC2(C=Cc3ccccc32)CC1 and give its measured IC50.
[A] > 100 µM

[Q] Try this molecule too: O=C(Nc1ccc([N+](=O)[O-])cc1)N1CCC2(C=Cc3ccccc32)CC1
[A] > 100 µM

[Q] Try the molecule O=C(CC1CCCCCCC1)N1CCC2(C=Cc3ccccc32)CC1
[A] > 10 µM

[Q] Can you handle CC1(C)C2CC[C@@]1(CS(=O)(=O)N1CCC3(CCCc4ccccc43)CC1)C(=O)C2 next?
[A] > 10 µM

[Q] // same read-out, input: O=C1CCCCC1CS(=O)(=O)N1CCC2(C=Cc3ccccc32)CC1 (stereo not given)
[A] > 100 µM

----------
Molecular target: UniProtKB P70536
Test: Half-maximal inhibition of binding of [3H]oxytocin to OT receptor in rat uterine tissue
Give IC50 for every item shown.

[Q] Fill blank: measured IC50 of the compound COc1ccc2c(c1)C1(C=C2)CCN(S(=O)(=O)C[C@]23CCC(C[C@@H]2O)C3(C)C)CC1 is ____.
[A] > 10 µM

[Q] What do we get for O=S(=O)(Cc1ccccc1)N1CCC2(C=Cc3ccccc32)CC1 ?
[A] > 10 µM

[Q] # repeat for CC1(C)C2CC[C@@]1(CS(=O)(=O)N1CCC3(C=Cc4cc(-c5ccccc5)ccc43)CC1)C(=O)C2
[A] > 10 µM

[Q] And then O=S(=O)(c1cccs1)N1CCC2(C=Cc3ccccc32)CC1 , what is it?
[A] 10 µM

[Q] CC1(C)C2CC[C@@]1(CS(=O)(=O)N1CCC(c3ccccc3)(c3ccccc3)CC1)C(=O)C2 ?
[A] > 10 µM

[Q] Ok, now CC1(C)C2CC[C@@]1(CS(=O)(=O)N1CCC3(C=Cc4cc(F)ccc43)CC1)[C@H](O)C2
[A] 0.56 µM

[Q] Field entry: O=C1CCCCC1CC(=O)N1CCC2(C=Cc3ccccc32)CC1 (centres undefined)
[A] > 10 µM

[Q] Repeat with CC[C@@]1(O)CC2CC[C@]1(CS(=O)(=O)N1CCC3(C=Cc4ccccc43)CC1)C2(C)C
[A] 0.63 µM

[Q] Also check Cc1ccc(S(=O)(=O)N2CCN(c3ccccc3)CC2)cc1
[A] > 100 µM

----------
Target: Oxytocin receptor (Rattus norvegicus)
Sequence (P70536 whole entry): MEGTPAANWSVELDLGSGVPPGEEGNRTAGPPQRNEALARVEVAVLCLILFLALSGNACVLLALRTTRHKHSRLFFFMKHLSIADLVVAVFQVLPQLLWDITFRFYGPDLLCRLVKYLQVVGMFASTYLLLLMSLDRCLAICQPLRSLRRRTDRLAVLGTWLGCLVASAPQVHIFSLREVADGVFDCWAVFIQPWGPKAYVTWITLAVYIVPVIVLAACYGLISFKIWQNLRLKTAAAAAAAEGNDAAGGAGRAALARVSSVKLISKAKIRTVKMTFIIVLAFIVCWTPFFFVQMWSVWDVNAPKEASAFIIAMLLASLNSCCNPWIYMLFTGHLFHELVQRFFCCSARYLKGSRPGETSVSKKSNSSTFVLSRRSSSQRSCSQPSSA
Assay: Compound was evaluated for half-maximal inhibition of binding of [3H]oxytocin to Oxytocin receptor in rat uterine tissue
metric: pIC50
Please express pIC50 as -log10 of the molar concentration.

[Q] Please give the measured pIC50 for this compound: CC1(C)C2CC[C@@]1(CS(=O)(=O)N1CCC3(CC1)c1ccccc1C(Br)C3Br)C(=O)C2 (stereo partly drawn)
[A] 5.35

[Q] Another compound to look at: O=S(=O)(c1ccc2ccccc2c1)N1CCC2(C=Cc3ccccc32)CC1
[A] 5.52

[Q] Try this compound next: O=S(=O)(/C=C/c1ccccc1)N1CCC2(C=Cc3ccccc32)CC1
[A] 5.00

----------
Biological target: Vasopressin receptor (Rattus norvegicus, UniProt P48974+P30560+Q00788)
Test: Half-maximal inhibition of binding of [3H]vasopressin to vasopressin receptor 1 in rat liver
Format: tissue-based
metric: IC50

[Q] Query: IC50; subject: CC1(C)C2CC[C@@]1(CS(=O)(=O)N1CCC3(CCCc4ccccc43)CC1)[C@@H](O)C2
[A] 3.7 µM

[Q] Then COc1ccc2c(c1)C=CC21CCN(S(=O)(=O)C[C@]23CCC(C[C@@H]2O)C3(C)C)CC1 ?
[A] > 10 µM

[Q] What would you report for CC1(C)C2CC[C@@]1(CS(=O)(=O)N1CCC3(C=Cc4cc(-c5ccccc5)ccc43)CC1)C(=O)C2 ?
[A] > 100 µM

[Q] Same again, this time with O=[N+]([O-])c1ccccc1S(=O)(=O)N1CCC2(C=Cc3ccccc32)CC1
[A] > 100 µM

[Q] Try this compound next: COc1ccc2c(c1)C=CC21CCN(S(=O)(=O)C[C@]23CCC(CC2=O)C3(C)C)CC1
[A] > 100 µM
